Biological target: T1, human IL-17A (human, UniProt Q16552 20-155, limits assumed)
T1 construct: Bought from R&D Systems; also called IL-17 antigen (human IL17A)
T1 sequence (looked up): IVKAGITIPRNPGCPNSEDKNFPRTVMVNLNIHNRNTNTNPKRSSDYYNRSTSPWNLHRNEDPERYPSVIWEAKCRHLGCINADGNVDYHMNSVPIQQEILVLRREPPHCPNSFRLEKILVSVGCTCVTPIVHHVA
Experiment: BLI (Octet Red96), antibody captured on AHC biosensor, human IL-17A in solution, 1:1 model, 25 C
Consider the following binders and their measured koff readings.
Only the number, expressed in s⁻¹, is required.

* PP10759 (antibody, human IgG4 S228P, kappa, V domains shown, expressed in HEK293; also called chimeric antibody PP10759; chimeric parental antibody) VH: EVQLVESGGGLVQPGGSLKLSCVASGFTFSTYGMSWVRQTPDKRLELVAIINHNGGSTFYPDSVKGRFTVSRDNAKNTLHLQMSSLKSEDTAMYYCARDPRHDGYFFDYWGQGTTLTVSS VL: DIQMTQSSPSFSVSLGDRVTITCKASEDIYDRLAWYQQKPGNAPRLLISGATSLETGIPSRFSGSRSGKDYTLDINSLQTEDAATYYCQQYWSVPWTFGGGTKLEIKR | 0.00053

[in] Check the records and state koff for PP10765 (antibody, human IgG4 S228P, kappa, V domains shown, Humanized, human IgG4/kappa; also called VH6666/VL6667) VH: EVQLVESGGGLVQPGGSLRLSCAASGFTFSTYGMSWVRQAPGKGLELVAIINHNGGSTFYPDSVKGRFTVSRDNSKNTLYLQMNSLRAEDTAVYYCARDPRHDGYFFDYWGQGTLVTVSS VL: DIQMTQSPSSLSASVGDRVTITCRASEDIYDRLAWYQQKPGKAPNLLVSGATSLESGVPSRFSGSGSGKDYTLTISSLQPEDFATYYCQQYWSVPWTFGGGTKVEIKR
[out] 6.6e-05
